assayed system: Hsp82 (Saccharomyces cerevisiae, UniProt P02829)
Sequence (P02829 whole entry): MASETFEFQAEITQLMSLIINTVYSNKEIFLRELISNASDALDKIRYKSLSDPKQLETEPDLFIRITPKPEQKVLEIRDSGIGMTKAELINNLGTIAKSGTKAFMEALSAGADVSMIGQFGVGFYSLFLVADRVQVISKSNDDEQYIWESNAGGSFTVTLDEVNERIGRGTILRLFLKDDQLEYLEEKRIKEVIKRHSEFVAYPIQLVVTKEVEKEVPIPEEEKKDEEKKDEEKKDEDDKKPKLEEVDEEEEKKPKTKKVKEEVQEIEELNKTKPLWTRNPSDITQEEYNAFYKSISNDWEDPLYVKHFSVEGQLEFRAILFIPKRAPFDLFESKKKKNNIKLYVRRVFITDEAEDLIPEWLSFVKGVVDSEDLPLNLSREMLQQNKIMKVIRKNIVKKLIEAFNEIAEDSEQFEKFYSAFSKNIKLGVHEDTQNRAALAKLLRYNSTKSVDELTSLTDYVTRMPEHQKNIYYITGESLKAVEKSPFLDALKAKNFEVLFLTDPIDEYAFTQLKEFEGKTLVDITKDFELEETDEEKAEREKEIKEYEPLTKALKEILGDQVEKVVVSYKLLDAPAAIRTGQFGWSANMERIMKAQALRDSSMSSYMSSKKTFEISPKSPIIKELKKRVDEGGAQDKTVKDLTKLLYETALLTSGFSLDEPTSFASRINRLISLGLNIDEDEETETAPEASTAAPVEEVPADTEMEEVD
assay protocol: PK/LDH enzyme coupling test of the ATPase activity of Hsp82 (NADH decrease at 340 nm)
Format: biochemical
assay context: 1 μM Hsp82, 250 μM ATP, 37° C., pyruvate kinase/lactate dehydrogenase coupling, read-out: Hsp82 ATPase IC50
pIC50: −log10 of the molar value. Structures can show the parent of a compound that is named as a salt.
Recorded pIC50 by entry

| compound | pIC50 |
| --- | --- |
| NC(=O)c1cccc(C(=O)NC2c3ccccc3-c3c(-c4nc5ccncc5[nH]4)cccc32)c1 (racemic) | 5.00 to 6.00 |
| NC(=O)C[C@H](N)C(=O)NC1c2ccccc2-c2c(-c3nc4cnccc4[nH]3)cccc21 (some centres unmarked) | 5.00 to 6.00 |
| O=C(NC1c2ccccc2-c2c(-c3nc4ccncc4[nH]3)cccc21)c1cccc(O)c1 (racemic) | 5.00 to 6.00 |
| COCCCNC(=O)c1cc(C(=O)NC2c3ccccc3-c3c(-c4nc5ccncc5[nH]4)cccc32)ccn1 (racemic) | 5.00 to 6.00 |
| NN=C1c2ccccc2-c2c1cccc2-c1nc2cnccc2[nH]1 (mixture of isomers) | 5.00 to 6.00 |
| O=C(Cc1ccncc1)NC1c2ccccc2-c2c(-c3nc4ccncc4[nH]3)cccc21 (racemic) | 5.00 to 6.00 |
| CC(C)(C)OC(=O)N1CCC(C(=O)NC2c3ccccc3-c3c(-c4nc5ccncc5[nH]4)cccc32)CC1 (racemic) | 5.00 to 6.00 |
| O=C(NC1c2ccccc2-c2c(-c3nc4ccncc4[nH]3)cccc21)N1CCOCC1 (racemic) | 5.00 to 6.00 |
| Cc1cc(C(=O)NC2c3ccccc3-c3c(-c4nc5ccncc5[nH]4)cccc32)cc(Cl)n1 (racemic) | 5.00 to 6.00 |
| ON=C1c2ccccc2-c2c1cccc2-c1nc2ccccc2[nH]1 (racemic) | 4.00 to 5.00 |

# compound NC1c2ccccc2-c2c(-c3nc4cnccc4[nH]3)cccc21 (racemic) ; its pIC50 = 4.00 to 5.00

# compound O=C(NC1c2ccccc2-c2c(-c3nc4ccncc4[nH]3)cccc21)c1cc(Cl)cc2[nH]cnc12 (racemic) ; its pIC50 = 5.00 to 6.00

# compound NC(=O)CCC(=O)NC1c2ccccc2-c2c(-c3nc4cnccc4[nH]3)cccc21 (racemic) [Example 40, trifluoroacetate] ; its pIC50 = 5.00 to 6.00

# compound O=C(NC1c2ccccc2-c2c(-c3nc4ccncc4[nH]3)cccc21)c1ccnc(Cl)c1 (racemic) ; its pIC50 = 5.00 to 6.00

# compound CC(=O)CCC(=O)NC1c2ccccc2-c2c(-c3nc4ccncc4[nH]3)cccc21 (racemic) ; its pIC50 = 4.00 to 5.00

# compound Cn1cc(C(=O)NC2c3ccccc3-c3c(-c4nc5ccncc5[nH]4)cccc32)c2cccnc21 (racemic) ; its pIC50 = 5.00 to 6.00

# compound c1ccc(CNN=C2c3ccccc3-c3c2cccc3-c2nc3cnccc3[nH]2)cc1 (mixture of isomers) ; its pIC50 = 5.00 to 6.00

# compound O=C(NC1c2ccccc2-c2c(-c3nc4ccncc4[nH]3)cccc21)c1cc[nH]n1 (racemic) ; its pIC50 = 5.00 to 6.00

# compound c1ccc2c(c1)-c1c(-c3nc4ccncc4[nH]3)cccc1C2NCc1cccc2ncccc12 (racemic) ; its pIC50 = 5.00 to 6.00

# compound Nc1ccc2c(C(=O)NC3c4ccccc4-c4c(-c5nc6cnccc6[nH]5)cccc43)cccc2c1 (racemic) ; its pIC50 = 5.00 to 6.00

# compound c1ccc2c(c1)-c1c(-c3nc4cnccc4[nH]3)cccc1C2NCc1ccc2cc[nH]c2c1 (racemic) ; its pIC50 = 4.00 to 5.00

# compound O=C1c2ccccc2-c2c1cccc2-c1nc2ccc(F)cc2[nH]1 ; its pIC50 = 4.00 to 5.00

# compound O=C1c2ccccc2-c2c1cccc2-c1nc2cnccc2[nH]1 ; its pIC50 = 5.00 to 6.00

# compound O=C(Cc1ccc(Cl)nc1)NC1c2ccccc2-c2c(-c3nc4cnccc4[nH]3)cccc21 (racemic) ; its pIC50 = 5.00 to 6.00

# compound Nc1cc(C(=O)NC2c3ccccc3-c3c(-c4nc5ccncc5[nH]4)cccc32)ccn1 (racemic) ; its pIC50 = > 6.00

----------
assayed system: Hsp82 (Saccharomyces cerevisiae, UniProt P02829)
assay protocol: PK/LDH enzyme coupling test of the ATPase activity of Hsp82 (NADH decrease at 340 nm)
Format: biochemical
assay context: 1 μM Hsp82, 250 μM ATP, 37° C., pyruvate kinase/lactate dehydrogenase coupling, read-out: Hsp82 ATPase IC50
Where a name gives a salt, the structure may show the parent alone.
Recorded IC50 by entry

// known answers, use as guide
| molecule | IC50 |
| --- | --- |
| O=C1CCc2c1cccc2C(=O)NC1c2ccccc2-c2c(-c3nc4cnccc4[nH]3)cccc21 (racemic) [Example 60] | 1 to 10 µM |
| O=C(NC1c2ccccc2-c2c(-c3nc4ccncc4[nH]3)cccc21)c1ccnnc1 (centres unmarked) [Example 86] | 1 to 10 µM |

# molecule O=C(NC1c2ccccc2-c2c(-c3nc4ccncc4[nH]3)cccc21)c1ccncc1Br (racemic) [Example 98] ; its IC50 = 1 to 10 µM

# molecule O=C(Cc1n[nH]c(S)n1)NC1c2ccccc2-c2c(-c3nc4ccncc4[nH]3)cccc21 (racemic) [Example 42, trifluoroacetate] ; its IC50 = 1 to 10 µM

# molecule COC(=O)c1cc(C(=O)NC2c3ccccc3-c3c(-c4nc5ccncc5[nH]4)cccc32)ccn1 (racemic) [Example 108] ; its IC50 = < 1 µM

# molecule O=C(NC1c2ccccc2-c2c(-c3nc4ccncc4[nH]3)cccc21)c1ccnc(C(=O)O)c1 (racemic) [Example 109] ; its IC50 = 10 to 100 µM

# molecule O=C(NC1c2ccccc2-c2c(-c3nc4ccncc4[nH]3)cccc21)c1ccnc(F)c1 (racemic) [Example 95] ; its IC50 = 1 to 10 µM

# molecule CCOC(=O)CNC(=O)NC1c2ccccc2-c2c(-c3nc4ccncc4[nH]3)cccc21 (racemic) [Example 78] ; its IC50 = 10 to 100 µM

# molecule COc1ccc2nc(-c3cccc4c3-c3ccccc3C4NC(=O)c3ccncc3)[nH]c2c1 (racemic) [Example 106] ; its IC50 = 1 to 10 µM

# molecule OC1c2ccccc2-c2c(-c3nc4cnccc4[nH]3)cccc21 (racemic) [Example 3] ; its IC50 = 10 to 100 µM

# molecule O=C(C=C1c2ccccc2-c2c1cccc2-c1nc2cnccc2[nH]1)Nc1cccnc1 (mixture of isomers) [Example 17] ; its IC50 = 1 to 10 µM

# molecule O=C(NC1c2ccccc2-c2c(-c3nc4ccncc4[nH]3)cccc21)c1cc(C2CC2)nc2ccccc12 (centres unmarked) [Example 85] ; its IC50 = 1 to 10 µM

# molecule O=C(N[C@H]1c2ccccc2-c2c(-c3nc4ccncc4[nH]3)cccc21)c1cccc2ncccc12 (single isomer, unassigned) [Example 14A] ; its IC50 = < 1 µM

# molecule COc1ccc(CC(=O)NC2c3ccccc3-c3c(-c4nc5cnccc5[nH]4)cccc32)cc1 (racemic) [Example 27] ; its IC50 = 1 to 10 µM

# molecule O=C(NC1c2ccccc2-c2c(-c3nc4ccncc4[nH]3)cccc21)c1ccncc1O (racemic) [Example 103] ; its IC50 = < 1 µM

# molecule O=C(NC1c2ccccc2-c2c(-c3nc4ccncc4[nH]3)cccc21)c1ccc2[nH]ncc2c1 (racemic) [Example 45] ; its IC50 = 1 to 10 µM

# molecule ON=C1c2ccccc2-c2c1cccc2-c1nc2cnccc2[nH]1 (mixture of isomers) [Example 5] ; its IC50 = 1 to 10 µM

# molecule O/N=C1/c2ccccc2-c2c1cccc2-c1nc2cnccc2[nH]1 [Example 23] ; its IC50 = < 1 µM

# molecule CCOC(=O)CCNC(=O)NC1c2ccccc2-c2c(-c3nc4ccncc4[nH]3)cccc21 (racemic) [Example 77] ; its IC50 = 1 to 10 µM

----------
assayed system: Hsp82 (Saccharomyces cerevisiae, UniProt P02829)
assay protocol: PK/LDH enzyme coupling test of the ATPase activity of Hsp82 (NADH decrease at 340 nm)
Assay type: biochemical
assay context: 1 μM Hsp82, 250 μM ATP, 37° C., pyruvate kinase/lactate dehydrogenase coupling, read-out: Hsp82 ATPase IC50
pIC50: −log10 of the molar value.
Recorded pIC50 by entry

| molecule | pIC50 |
| --- | --- |
| Cc1cc(C(=O)NC2c3ccccc3-c3c(-c4nc5ccncc5[nH]4)cccc32)cc(O)n1 (racemic) | 5.00 to 6.00 |

# molecule O=C(NC1c2ccccc2-c2c(-c3nc4ccccc4[nH]3)cccc21)c1cccc2ncccc12 (racemic) ; its pIC50 = 4.00 to 5.00

# molecule ON=C1c2ccccc2-c2c1cccc2-c1nc2ccc(O)cc2[nH]1 (racemic) ; its pIC50 = 4.00 to 5.00

# molecule O=C(NC1c2ccccc2-c2c(-c3nc4ccncc4[nH]3)cccc21)C1CCOCC1 (racemic) ; its pIC50 = 4.00 to 5.00

All figures here come from patent US7674795B2.
